- target: T1, Recombinant human CD4 (R&D Systems, Cat. 10327-CD) (human, UniProt P01730 26-390, limits assumed)
- T1 construct: Bought protein; also called huCD4
- protocol.description: BLI (Octet Red 384), non-clonal supernatant captured on AMC sensors, 100 nM human CD4
Binary label based on Response with cut-off 0.06: below gives label 1, not below gives label 0.

Previously resolved entries follow.
binder="75110_04G16A (antibody, V domains shown, Tested as non-clonal AlivaMab Mouse hybridoma supernatant (chimeric: human variable regions and human kappa, mouse Fc, captured by anti-mouse IgG Fc sensors); also called ADS75110 non-clonal supernatant 04G16A) VH: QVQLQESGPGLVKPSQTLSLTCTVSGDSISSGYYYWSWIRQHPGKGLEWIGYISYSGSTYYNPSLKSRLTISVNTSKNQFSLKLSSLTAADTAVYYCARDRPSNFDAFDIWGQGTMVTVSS VL: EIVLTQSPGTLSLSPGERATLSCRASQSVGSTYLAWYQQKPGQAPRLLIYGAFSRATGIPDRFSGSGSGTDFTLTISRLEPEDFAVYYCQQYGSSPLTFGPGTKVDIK" group="label 0"
binder="75110_10K21A (antibody, V domains shown, Tested as non-clonal AlivaMab Mouse hybridoma supernatant (human variable regions and human kappa, mouse Fc); also called ADS75110 non-clonal supernatant 10K21A) VH: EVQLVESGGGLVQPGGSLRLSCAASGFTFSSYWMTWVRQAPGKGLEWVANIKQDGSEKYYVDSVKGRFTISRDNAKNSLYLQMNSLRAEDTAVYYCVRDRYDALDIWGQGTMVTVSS VL: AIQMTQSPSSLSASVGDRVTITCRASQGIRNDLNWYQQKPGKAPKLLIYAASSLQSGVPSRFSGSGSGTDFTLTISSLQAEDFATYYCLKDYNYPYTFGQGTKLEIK" group="label 0"
binder="75110_05K11A (antibody, V domains shown, Tested as non-clonal AlivaMab Mouse hybridoma supernatant (human variable regions and human kappa, mouse Fc); also called ADS75110 non-clonal supernatant 05K11A) VH: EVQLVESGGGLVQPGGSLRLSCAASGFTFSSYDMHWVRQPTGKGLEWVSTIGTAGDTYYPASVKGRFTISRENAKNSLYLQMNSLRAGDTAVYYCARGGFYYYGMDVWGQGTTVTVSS VL: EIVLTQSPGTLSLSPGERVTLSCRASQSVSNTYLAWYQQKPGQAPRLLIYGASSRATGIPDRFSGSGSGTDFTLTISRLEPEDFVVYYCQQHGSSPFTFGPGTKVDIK" group="label 1"
binder="75110_01K10A (antibody, V domains shown, Tested as non-clonal AlivaMab Mouse hybridoma supernatant (human variable regions and human kappa, mouse Fc); also called ADS75110 non-clonal supernatant 01K10A) VH: EVQLVESGGALVQPGGSLRLSCAASGFTFRNYDMHWVRQATGKGLEWVSTIGTAGDTYYPGSVKGRFTISRENAKNSLYLQMNSLRAGDTAVYYCARGGDYYYGMDVWGQGTTVTVSS VL: EIVLTQSPDTLSLSPGERATLSCRASQSLSSVYLAWYQQKPGQAPRLLIYGASSRATGIPDRFSGTGSGTDFTLTISRLEPEDFAVYYCQQYGSSPFTFGPGTKVDIK" group="label 1"

Hello, I'm reviewing records and need to know if Response of 75110_01G11A (antibody, V domains shown, Tested as non-clonal AlivaMab Mouse hybridoma supernatant (human variable regions and human kappa, mouse Fc); also called ADS75110 non-clonal supernatant 01G11A) VH: EVQLVESGGGLVQPGGSLRLSCAASGFTFSSYDMHWVRQATGKGLEWVSTIGTAGDTYYPGSVKGRFTISRENARNSLFLQMNSLRAGDTAVYYCARGGDYYYGMDVWGQGTTVTVSS VL: EIVLTQSPGTLSLFPGERATLSCRASQNTYSSYLAWYQQKPGQAPRLLIYGASNRATGIPDRFSGSGSGTDFTLTISRLEPEDFAVYYCQQHGTSPFTFGPGTKVDIK is below 0.06. Could you check? label 1

Say whether its Response is strictly beneath 0.06. Entry: 75110_10N21A (antibody, V domains shown, Tested as non-clonal AlivaMab Mouse hybridoma supernatant (human variable regions and human kappa, mouse Fc); also called ADS75110 non-clonal supernatant 10N21A) VH: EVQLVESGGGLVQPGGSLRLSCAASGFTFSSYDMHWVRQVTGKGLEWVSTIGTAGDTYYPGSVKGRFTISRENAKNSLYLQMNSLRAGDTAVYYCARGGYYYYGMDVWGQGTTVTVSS VL: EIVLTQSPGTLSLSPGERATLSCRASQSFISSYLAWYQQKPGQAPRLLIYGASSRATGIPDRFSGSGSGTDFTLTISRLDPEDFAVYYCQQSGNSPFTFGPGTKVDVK label 0

Input 75110_02I16A (antibody, V domains shown, Tested as non-clonal AlivaMab Mouse hybridoma supernatant (human variable regions and human kappa, mouse Fc); also called ADS75110 non-clonal supernatant 02I16A) VH: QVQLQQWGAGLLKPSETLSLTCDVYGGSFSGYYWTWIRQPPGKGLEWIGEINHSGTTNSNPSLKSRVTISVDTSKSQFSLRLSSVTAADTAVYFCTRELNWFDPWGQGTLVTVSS VL: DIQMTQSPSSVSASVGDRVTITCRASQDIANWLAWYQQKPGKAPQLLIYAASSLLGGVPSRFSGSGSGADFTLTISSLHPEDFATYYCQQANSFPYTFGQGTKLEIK ; condition: Response strictly below 0.06. Does it hold? label 1

Origin of values: patent US20220112288A1
